- RUN DESCRIPTION: drug combination growth inhibition, ovarian cancer – cell-based, oncology-focused library, rucaparib conditional, profiling panel (AID 1508598)
- SETTINGS: patient-derived ovarian cancer cells, CellTiter-Glo viability, 144 h; at 0.0195 µM; OCI-C5x cells; without rucaparib; stronger effect = lower value
QUANTITY KIND: viability (%)
Only the number, expressed in %, is required.

In [3]: df
Out[3]:
                                   molecule  unit_text  result
0  C[C@@H](Oc1cc(-c2cnn(C3CCNCC3)c2)cnc1N)c1c(Cl)ccc(F)c1Cl          %     121
1  Cc1cnc(-c2ccccc2C(C)C)nc1NCc1ccc(-n2ccnn2)cc1          %     110
2  Cc1nc(N)sc1-c1ccnc(Nc2ccc(N3CCOCC3)cc2)n1          %    95.4
3  C=CC(=O)N1CCC[C@@H](n2nc(-c3ccc(Oc4ccccc4)cc3)c3c(N)ncnc32)C1          %     112

From here, focus on the item given below.
Sample O=C(O)CCC1CCC(c2cc(F)ccc2F)(S(=O)(=O)c2ccc(Cl)cc2)CC1 (stereo not given) — what was its viability?
104

###

- RUN DESCRIPTION: viability loss in pontine glioma line – cell-based, SU-DIPG-XVII, MIPE5.0, CellTiter-Glo, qHTS, dose response (AID 1347060);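 on AC50: cells exposed to compound for 48 hours before viability readout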
- SETTINGS: CellTiter-Glo ATP luminescence
Results filed as inconclusive are left out. The source made the active and inactive calls. No cut-off is given here; in the data, nearly all actives have AC50 up to about 26 µM.
Result category, one only: active, inactive

These recorded examples may help you get a feel for the data.
                                   compound  category_label
0  COc1cc(N2CCC(N)CC2)ccc1Nc1ncc(Cl)c(-c2c[nH]c3ccccc23)n1          active
1  COc1ccc2c(c1)CC[C@@H]1[C@@H]2CC[C@]2(C)[C@@H](NCCCCCCN3C(=O)C=CC3=O)CC[C@@H]12        inactive
2  C[C@H]1[C@H](O)O[C@@H]2O[C@@]3(C)CC[C@H]4[C@H](C)CC[C@@H]1[C@@]24OO3          active
3  COC[C@H](NC(=O)c1cnc(C)s1)C(=O)N[C@@H](COC)C(=O)N[C@@H](Cc1ccccc1)C(=O)[C@@]1(C)CO1          active

Which outcome did this test record for the compound "C=C1C(=O)O[C@H]2C[C@H](C)C(/C=C/C(C)=O)=CC[C@H]12" ?
active

Item: C=CCN1C[C@H](C(=O)N(CCCN(C)C)C(=O)NCC)CC2c3cccc4[nH]cc(c34)C[C@H]21 (stereo partly drawn)
inactive

Item: "O=C(NO)c1ccc(C2=Nc3ccccc3Oc3ccccc32)cc1"
active

Item: "C[C@H]1C[C@@H](n2c(Nc3ccc(OC(F)(F)F)cc3)nc3cc(CCC(=O)O)ccc32)CC(C)(C)C1"
active

Item: "Cc1cnc(Nc2ccc(OCCN3CCCC3)cc2)nc1Nc1cccc(S(=O)(=O)NC(C)(C)C)c1"
active

Item: "C1=C/COCc2cc(ccc2OCCN2CCCC2)Nc2nccc(n2)-c2cccc(c2)COC/1"
active

Item: CCNC(=O)CCC/C=C\C[C@@H]1[C@@H](/C=C/C(O)CCc2ccccc2)[C@@H](O)C[C@@H]1O (stereo partly drawn)
inactive

Item: "CN(C)C(=O)c1ccc(S(=O)(=O)c2ccc(NC(=O)[C@@](C)(O)C(F)(F)F)c(Cl)c2)cc1"
inactive

Item: "O=c1cc(N2CCOCC2)oc2c(-c3cccc4c3sc3ccccc34)cccc12"
active

Item: "O=C(NO)c1cnc(N2C[C@H]3C[C@@H]2CN3c2cc(C(F)(F)F)ccn2)nc1"
active

Item: "CO[C@@H](C(=O)N1Cc2[nH]nc(NC(=O)c3ccc(N4CCN(C)CC4)cc3)c2C1)c1ccccc1"
active

Item: "CCC[C@H](NC(=O)/C(C#N)=C/c1cccc(Br)n1)c1ccccc1"
active

Item: COc1nc(N)nc2c1ncn2C1OC(CO)C(O)C1O (stereo not drawn)
inactive

Item: Cc1ccc(O)c(C(CCN(C(C)C)C(C)C)c2ccccc2)c1 (stereo not drawn)
inactive

###

Quick reference for viability among some molecules
- RUN DESCRIPTION: drug combination growth inhibition, ovarian cancer – cell-based, oncology-focused library, rucaparib conditional, profiling panel (AID 1508598)
- SETTINGS: patient-derived ovarian cancer cells, CellTiter-Glo viability, 144 h; at 0.00488 µM; OCI-P5x cells; with rucaparib 20 µM; stronger effect = lower value; 100% = cells with rucaparib alone
Only the number, expressed in %, is required.

Below, each entry is followed by its recorded viability result.
>>> print(df.to_string())
                              record_smiles  unit_text  result
0                   O=C(O)c1ccc(O)c2ncccc12          %     103
1  C=CCn1c(=O)c2cnc(Nc3ccc(N4CCN(C)CC4)cc3)nc2n1-c1cccc(C(C)(C)O)n1          %     102
2  O=C(NOC[C@H](O)CO)c1ccc(F)c(F)c1Nc1ccc(I)cc1F          %      60
3  C[C@@H](Oc1cc(-n2cnc3ccc(CN4CCN(C)CC4)cc32)sc1C(N)=O)c1ccccc1C(F)(F)F          %    73.2

Sample "CC(C)CC(=O)Nc1n[nH]c2c1CN(C(=O)C1CCN(C)CC1)C2(C)C" — what was its viability?
95.7

Item: "C=CC(=O)Nc1cccc(Nc2nc(Nc3ccc(NC4CN(CCF)C4)cc3OC)ncc2C(F)(F)F)c1"
96.9

Item: "COc1cc2nccc(Oc3ccc(NC(=O)NC4CC4)c(Cl)c3)c2cc1C(N)=O"
110

Item: "O=C(Nc1cccnc1)N1CCC(Cc2cccc(Oc3ccc(C(F)(F)F)cn3)c2)CC1"
112

###

- RUN DESCRIPTION: drug combination growth inhibition, ovarian cancer – cell-based, oncology-focused library, rucaparib conditional, profiling panel (AID 1508598)
- SETTINGS: patient-derived ovarian cancer cells, CellTiter-Glo viability, 144 h; at 0.00122 µM; OCI-C5x cells; without rucaparib
Activity calls are given as the source filed them.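 The calls were made as follows: active = normalized viability below 100% at a tested concentration; inactive = the rest.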
Result category, one only: active, inactive

>>> df
                                   compound  category_label
0  Cc1ccc(C(=O)N(CCCN)[C@@H](c2nc3cc(Cl)ccc3c(=O)n2Cc2ccccc2)C(C)C)cc1        inactive
1  COc1cc(Nc2ncc3c(n2)-c2ccc(Cl)cc2C(c2c(F)cccc2OC)=NC3)ccc1C(=O)O        inactive
2  CC[C@@H]1C(=O)N(C)c2cnc(Nc3ccc(C(=O)NC4CCC(N5CCN(CC6CC6)CC5)CC4)cc3OC)nc2N1C(C)C (some centres undefined)        inactive
3  Cn1c(=O)c(F)c(Nc2ccc(I)cc2F)c2c(=O)n(C[C@@H](O)CO)cnc21        inactive

Which outcome did this test record for the compound "C#Cc1cccc(Nc2ncnc3cc(OC)c(OCCCCCCC(=O)NO)cc23)c1" ?
inactive

Item: "Cc1ccc([C@@H]2O[C@H](CO)[C@@H](O)[C@H](O)[C@H]2O)cc1Cc1ccc(-c2ccc(F)cc2)s1"
inactive

Item: "OCCn1cc(-c2cnc3nnn(Cc4ccc5ncccc5c4)c3n2)cn1"
inactive

Item: "CC[C@@H]1C(=O)N(C)c2cnc(Nc3ccc(C(=O)NC4CCN(C)CC4)cc3OC)nc2N1C1CCCC1"
inactive

Item: "CN(C)C/C=C/C(=O)Nc1cc2c(Nc3ccc(F)c(Cl)c3)ncnc2cc1O[C@H]1CCOC1"
active

Item: "CCCCCCCCc1ccc(CCC(N)(CO)CO)cc1"
inactive

Item: "CC(C)c1cc(-c2n[nH]c(=O)n2-c2ccc3c(ccn3C)c2)c(O)cc1O"
active

Item: "N#Cc1c(NC(=O)c2cccc3ccccc23)sc2c1CCCC2"
inactive

Item: "C[C@@H]1CN(CC(=O)Nc2ccc3c(c2)Cc2cccc(-c4cc(=O)cc(N5CCOCC5)o4)c2S3)C[C@H](C)O1"
inactive

Item: "CC(=O)Nc1cccc(-n2c(=O)n(C3CC3)c(=O)c3c(Nc4ccc(I)cc4F)n(C)c(=O)c(C)c32)c1"
inactive

Item: "CN(NC(=O)CC(=O)NN(C)C(=S)c1ccccc1)C(=S)c1ccccc1"
inactive

Item: "CN(C)Cc1ccc(-c2nc3cccc4c3n2CCNC4=O)cc1"
inactive

Item: "CN1CCCN(C(=O)c2cccc(-c3ccc(/C=C4/C(=O)Nc5ccc(Cl)cc54)o3)c2)CC1"
inactive

Item: "Cn1cc(-c2ccc3nnc(Sc4ccc5ncccc5c4)n3n2)cn1"
inactive

Item: "CCn1c(-c2nonc2N)nc2c(C#CC(C)(C)O)ncc(OC[C@H]3CCCNC3)c21"
inactive

###

- RUN DESCRIPTION: viability loss in pontine glioma line – cell-based, SU-DIPG-XIII, MIPE5.0, CellTiter-Glo, qHTS, dose response (AID 1347064);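 on AC50: cells exposed to compound for 48 hours before the viability read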
- SETTINGS: CellTiter-Glo ATP luminescence
Inconclusive results are not listed. Calls of active or inactive are those of the source. No cut-off is given here; in the data, nearly all actives have AC50 up to about 23 µM.
Result category, one only: 1 (yes) = active, 0 (no) = inactive

These recorded examples may help you get a feel for the data.
In [3]: df
Out[3]:
                              record_smiles  category_label
0  CC(C)(C)NC(=O)Nc1cccc(Nc2ncc(F)c(NC(C)(C)CO)n2)c1          0 (no)
1  COc1nc(OCc2cccc(-c3ccccc3)c2C)ccc1CNCCNC(C)=O         1 (yes)
2  CCOC(=O)N1CCN(/[N+]([O-])=N/Oc2ccc([N+](=O)[O-])cc2[N+](=O)[O-])CC1         1 (yes)
3  CN1C(=O)[C@@H](NC(=O)c2cc(Cc3ccccc3)on2)COc2ccccc21          0 (no)
4  Cc1ccc(NC(=O)C2(c3ccc4c(c3)OC(F)(F)O4)CC2)nc1-c1cccc(C(=O)O)c1          0 (no)

Which outcome did this test record for the compound "CN1CCN(c2ccc3nc(-c4cc(C(C)(C)C)c(OCCCC(=O)NCCCN=[N+]=[N-])c(C(C)(C)C)c4)[nH]c3c2)CC1" ?
1 (yes)

Item: "NC[C@@](O)(c1ccc(Cl)cc1)c1ccc(-c2cn[nH]c2)cc1"
1 (yes)

Item: "CC(C)(C)c1[nH]cnc1/C=c1\[nH]c(=O)/c(=C/c2ccccc2)[nH]c1=O"
1 (yes)

Item: "COc1cc(=C2C=c3ccccc3=N2)[nH]/c1=C/c1[nH]c(C)cc1C"
1 (yes)
